Provenance of the data: patent US20140302063A1

Target: recombinant H2 A/Japan/305/1957 (H2N2) (Influenza A virus A/Japan/305/1957 …, UniProt P03451 16-525)
Assay: SPR, single cycle kinetics, HA immobilised
pKd: −log10 of the molar value.
# binarize pKd: threshold 7 inclusive, high side criterion met, low side criterion not met

* R2a-G8 (VHH) VHH: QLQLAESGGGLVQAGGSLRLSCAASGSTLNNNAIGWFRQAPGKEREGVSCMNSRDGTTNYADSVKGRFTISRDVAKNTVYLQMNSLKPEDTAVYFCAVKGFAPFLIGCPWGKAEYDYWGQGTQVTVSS | criterion met
* R2a-E8 (VHH) VHH: QLQLVESGGGLVQPGGSLRLSCTASGDIFVMYMIDWYRQAPGKQRELVASIDGRGTPMYADSVKGRFTISRDNAKNTVYLQMNSLKPEDTAVYSCHAKSPLVDNEYWGQGTQVTVSS | criterion met
* R2a-H9 (VHH) VHH: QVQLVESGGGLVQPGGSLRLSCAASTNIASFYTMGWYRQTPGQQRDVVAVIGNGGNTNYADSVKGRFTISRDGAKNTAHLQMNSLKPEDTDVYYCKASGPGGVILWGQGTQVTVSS | criterion met
* R1a-B6 (VHH) VHH: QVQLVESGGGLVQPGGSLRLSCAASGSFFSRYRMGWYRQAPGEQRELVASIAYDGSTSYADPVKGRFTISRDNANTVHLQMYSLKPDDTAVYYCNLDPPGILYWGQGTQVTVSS | criterion met
* R1a-A5 (VHH) VHH: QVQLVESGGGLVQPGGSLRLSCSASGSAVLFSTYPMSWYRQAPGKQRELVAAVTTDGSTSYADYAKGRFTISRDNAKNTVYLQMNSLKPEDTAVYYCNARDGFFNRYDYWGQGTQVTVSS | criterion not met
